Quick note: these are Ki numbers for system: Sodium-dependent dopamine transporter (Homo sapiens, UniProt Q01959)
Sequence (Q01959 whole entry): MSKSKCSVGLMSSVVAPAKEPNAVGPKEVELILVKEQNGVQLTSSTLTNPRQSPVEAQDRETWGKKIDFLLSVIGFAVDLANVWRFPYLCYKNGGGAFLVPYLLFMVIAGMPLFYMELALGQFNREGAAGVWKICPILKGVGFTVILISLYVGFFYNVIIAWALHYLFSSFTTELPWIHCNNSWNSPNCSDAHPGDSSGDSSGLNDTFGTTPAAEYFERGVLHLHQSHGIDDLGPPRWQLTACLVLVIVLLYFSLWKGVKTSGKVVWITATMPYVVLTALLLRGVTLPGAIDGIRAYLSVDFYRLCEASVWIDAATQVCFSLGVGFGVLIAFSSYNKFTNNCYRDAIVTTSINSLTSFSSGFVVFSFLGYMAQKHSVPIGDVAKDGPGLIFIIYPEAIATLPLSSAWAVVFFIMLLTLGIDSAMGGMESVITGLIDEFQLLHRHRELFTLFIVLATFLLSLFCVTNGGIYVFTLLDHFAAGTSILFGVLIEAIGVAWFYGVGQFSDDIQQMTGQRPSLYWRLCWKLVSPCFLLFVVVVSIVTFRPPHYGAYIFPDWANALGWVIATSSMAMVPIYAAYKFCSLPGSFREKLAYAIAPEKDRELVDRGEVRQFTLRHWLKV
Measurement Kind: Ki (nM)

> print(dat)
                                   compound                        measurement.target  value.observed
1  COC(=O)[C@H](c1ccc(N=[N+]=[N-])c(I)c1)[C@H]1CCCCN1 (racemic)  Sodium-dependent dopamine transporter (Homo sapiens, UniProt Q01959)               4
2  COC(=O)[C@H](c1ccc(Cl)c(Cl)c1)[C@H]1CCCCN1 (racemic)  Sodium-dependent dopamine transporter (Homo sapiens, UniProt Q01959)             1.8
3  COC(=O)[C@H](c1ccc(N=[N+]=[N-])cc1)[C@H]1CCCCN1 (racemic)  Sodium-dependent dopamine transporter (Homo sapiens, UniProt Q01959)              35
4  COC(=O)[C@H](c1ccc([N+](=O)[O-])cc1)[C@H]1CCCCN1 (racemic)  Sodium-dependent dopamine transporter (Homo sapiens, UniProt Q01959)              77
5  COC(=O)[C@H](c1ccc(N)c(I)c1)[C@H]1CCCCN1 (racemic)  Sodium-dependent dopamine transporter (Homo sapiens, UniProt Q01959)             9.1
6  COC(=O)[C@H](c1ccc(N)cc1)[C@H]1CCCCN1 (racemic)  Sodium-dependent dopamine transporter (Homo sapiens, UniProt Q01959)             6.3
